Cited source for all entries: patent US11352350B2

- assay.system: IRAK4 (Homo sapiens (Human), UniProt Q9NWZ3)
- Sequence (Q9NWZ3 whole entry): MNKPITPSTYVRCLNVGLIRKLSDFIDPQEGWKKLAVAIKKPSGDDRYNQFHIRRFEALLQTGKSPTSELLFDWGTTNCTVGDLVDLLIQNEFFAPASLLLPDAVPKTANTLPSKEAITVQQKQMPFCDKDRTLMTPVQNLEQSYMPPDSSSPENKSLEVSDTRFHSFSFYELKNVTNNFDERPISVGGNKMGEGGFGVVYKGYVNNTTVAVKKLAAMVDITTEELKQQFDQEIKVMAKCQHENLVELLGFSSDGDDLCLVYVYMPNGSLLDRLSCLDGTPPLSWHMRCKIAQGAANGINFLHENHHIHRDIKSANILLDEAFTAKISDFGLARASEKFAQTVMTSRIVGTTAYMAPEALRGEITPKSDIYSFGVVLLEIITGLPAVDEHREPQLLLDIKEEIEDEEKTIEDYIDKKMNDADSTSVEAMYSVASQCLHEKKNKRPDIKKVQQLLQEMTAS
- procedure.text: IRAK4 MSD degradation in OCI-LY10
- Format: cell-based
- cond: OCI-LY10, 4 hrs, MSD; read-out: IRAK4 MSD degradation in OCI-LY10 at 4 hrs: Average external-Abs DC50
endpoint.name: DC50

Use these answered entries as a reference point.
Cn1c(=O)n(C2CCC(=O)NC2=O)c2cccc(CN3CCC(CCN4CC(n5cc(NC(=O)c6coc(-c7ccnc(NCC8CC8)c7)n6)c(C(F)F)n5)C4)CC3)c21 (centres unmarked) ... 0.01 to 0.1 µM
CN(C[C@H]1CN(CCCc2ccc3c(c2)n(C)c(=O)n3C2CCC(=O)NC2=O)CCO1)C[C@H]1CC[C@H](n2cc(NC(=O)c3coc(-c4ccnc(NCC5CC5)c4)n3)c(C(F)F)n2)CC1 (some centres unmarked) ... < 0.01 µM
CN(CCCNc1cccc2c1C(=O)N(C1CCC(=O)NC1=O)C2=O)C1CCN(C(=O)[C@H]2CC[C@H](n3cc(NC(=O)c4cnn5ccc(C6C[C@H]7C[C@@H]6CO7)nc45)c(C(F)F)n3)CC2)CC1 (some centres unmarked) ... > 1 µM
C=C(C)c1nn([C@H]2CC[C@H](CN3CCC(OCCCc4cccc5c4n(C)c(=O)n5C4CCC(=O)NC4=O)CC3)CC2)cc1NC(=O)c1cnn2ccc(NCC3CC3)nc12 (some centres unmarked) ... 0.1 to 1 µM

Moving on to another molecule below.
Entry O=C1CCC(N2C(=O)c3cccc(NCCCOC[C@@H]4CN(C[C@H]5CC[C@H](n6cc(NC(=O)c7cnn8ccc(N9C[C@H]%10C[C@@H]9CO%10)nc78)c(C(F)F)n6)CC5)CCO4)c3C2=O)C(=O)N1 (some centres unmarked) ; DC50 = > 1 µM

* * *

- assay.system: IRAK4 (Homo sapiens (Human), UniProt Q9NWZ3)
- procedure.text: IRAK4 MSD degradation in OCI-LY10
- Format: cell-based
- cond: OCI-LY10, 4 hrs, MSD; read-out: IRAK4 MSD degradation in OCI-LY10 at 4 hrs: Average external-Abs DC50
The compounds listed here are annotated with their DC50.

Looking up CN(CCCOCCCc1cccc2c1C(=O)N(C1CCC(=O)NC1=O)C2=O)C[C@H]1CC[C@H](n2cc(NC(=O)c3coc(-c4ccnc(NCC5CC5)c4)n3)c(C(F)F)n2)CC1 (some centres unmarked) , I see its DC50 listed as 100 to 1000 nM

* * *

The following compounds are shown together with reported pIC50 values.
- System: OCI-LY10
- procedure.text: CTG Cell Viability Assay - OCI-LY10
- Assay type: cell-based, human
- cond: Homo sapiens, OCI-Ly10, 96 h, OCI-LY10, 4 days; read-out: CTG Cell Viability Assay - OCI-LY10: Average external-IC50
pIC50: −log10 of the molar value.

Worked cases, pIC50 given:
CN(CCCOCCCc1cccc2c1n(C)c(=O)n2C1CCC(=O)NC1=O)C[C@H]1CC[C@H](n2cc(NC(=O)c3cnn4ccc(N5CCOCC5)nc34)c(C(F)F)n2)CC1 (stereo partly shown) ... < 6.00
O=C1CCC(N2C(=O)c3cccc(NCCCOC[C@H]4CC[C@H](n5cc(NC(=O)c6cnn7ccc(N8C[C@H]9C[C@@H]8CO9)nc67)c(C(F)F)n5)CC4)c3C2=O)C(=O)N1 (stereo partly shown) ... 6.00 to 6.30
CN(Cc1ccc(-n2cc(NC(=O)c3cnn4ccc(N5CCOCC5)nc34)c(C(F)F)n2)cc1)[C@H]1CC[C@H](Nc2cccc3c2C(=O)N(C2CCC(=O)NC2=O)C3=O)CC1 (stereo partly shown) ... < 6.00

The recorded pIC50 for entry O=C1CCC(N2C(=O)c3cccc(NCCCOCCCOC[C@H]4CC[C@H](n5cc(NC(=O)c6cnn7ccc(N8C[C@H]9C[C@@H]8CO9)nc67)c(C(F)F)n5)CC4)c3C2=O)C(=O)N1 (stereo partly shown) equals < 6.00

Notebook: Cn1c(=O)n(C2CCC(=O)NC2=O)c2cccc(CCCOC3CCN(C[C@H]4CC[C@H](n5cc(NC(=O)c6cnn7ccc(NCC8CC8)nc67)c(C(F)F)n5)CC4)CC3)c21 (stereo partly shown) , pIC50 read as < 6.00

pIC50 reading for CN(CCOCCCc1cccc2c1n(C)c(=O)n2C1CCC(=O)NC1=O)C[C@H]1CC[C@H](n2cc(NC(=O)c3coc(-c4ccnc(NCC5CC5)c4)n3)c(C(F)F)n2)CC1 (stereo partly shown) : < 6.00

In plain terms, `CN(CCCOCCCNC(=O)c1ccc(CNCc2ccc(-c3ccc4c(cnn4CC4CC4)c3)cc2)cc1)C[C@H]1CC[C@H](n2cc(NC(=O)c3coc(-c4ccnc(NCC5CC5)c4)n3)c(C(F)F)n2)CC1` has a documented pIC50 of < 6.00

For reference, reported pIC50 for `CN[C@@H](C)C(=O)N[C@H](C(=O)N1CCC[C@H]1c1nc(C(=O)c2cccc(OCCOCCOCCOCCOCCNC[C@H]3CC[C@H](n4cc(NC(=O)c5coc(-c6ccnc(NCC7CC7)c6)n5)c(C(F)F)n4)CC3)c2)cs1)C1CCCCC1` stands at 6.00 to 6.30

get_value(item= CC[C@@H]1CC(=O)N[C@@H]1COc1ncc(C#C[C@H]2CC[C@@H](CN3CCC(OCCCc4cccc5c4n(C)c(=O)n5C4CCC(=O)NC4=O)CC3)CC2)c2cc(C(N)=O)c(OC)cc12 (stereo partly shown) , readout=pIC50) returns < 6.00

Notebook: Cn1c(=O)n(C2CCC(=O)NC2=O)c2ccc(CCCOCCNC[C@H]3CC[C@H](n4cc(NC(=O)c5coc(-c6ccnc(NCC(F)(F)F)c6)n5)c(C(N)=O)n4)CC3)cc21 (stereo partly shown) , pIC50 read as < 6.00

* * *

- assay.system: IRAK4 (Homo sapiens (Human))
- procedure.text: IRAK4 MSD degradation in OCI-LY10
- Assay type: cell-based
- cond: OCI-LY10, 4 hrs, MSD; read-out: IRAK4 MSD degradation in OCI-LY10 at 4 hrs: Average external-Abs DC50
Measured DC50 by item

Cc1nc2cccc(N(C)CCCOC3CCN(C[C@H]4CC[C@H](n5cc(NC(=O)c6cnn7ccc(N8CCOCC8)nc67)c(C(F)F)n5)CC4)CC3)c2c(=O)n1C1CCC(=O)NC1=O (some centres unmarked) [I-214] ... > 1000 nM

The reported value for Cn1c(=O)n(C2CCC(=O)NC2=O)c2cccc(CCCOCCNC[C@H]3CC[C@H](n4cc(NC(=O)c5coc(-c6ccnc(NCC(F)(F)F)c6)n5)c(C(N)=O)n4)CC3)c21 (some centres unmarked) [I-11] in terms of DC50 is < 10 nM

Measured DC50 of Cc1nc2cccc(NCCCOC3CCN(C[C@H]4CC[C@H](n5cc(NC(=O)c6cnn7ccc(N8CCOCC8)nc67)c(C(F)F)n5)CC4)CC3)c2c(=O)n1C1CCC(=O)NC1=O (some centres unmarked) [I-211] : > 1000 nM

Record CN(CCCOCCCNc1cccc2c1C(=O)N(C1CCC(=O)NC1=O)C2=O)C[C@H]1CC[C@H](n2cc(NC(=O)c3cnn4ccc(NCC5CC5)nc34)c(C(F)F)n2)CC1 (some centres unmarked) [I-437] . Reported DC50: 10 to 100 nM

Quick note, DC50 for CN(C[C@@H]1CN(Cc2cccc3c2n(C)c(=O)n3C2CCC(=O)NC2=O)CCO1)C[C@H]1CC[C@H](n2cc(NC(=O)c3coc(-c4ccnc(NCC5CC5)c4)n3)c(C(F)F)n2)CC1 (some centres unmarked) [I-78] landed at 10 to 100 nM

* * *

- assay.system: IRAK4 (Homo sapiens (Human), UniProt Q9NWZ3)
- procedure.text: IRAK4 MSD degradation in OCI-LY10
- Assay type: cell-based
- cond: OCI-LY10, 4 hrs, MSD; read-out: IRAK4 MSD degradation in OCI-LY10 at 4 hrs: Average external-Abs DC50
endpoint.name: DC50

CN(CCOCCOCCOC12CC3CC(CC(C3)C1)C2)C[C@H]1CC[C@H](n2cc(NC(=O)c3cnn4ccc(N5CCNCC5)nc34)c(C(F)F)n2)CC1 ... > 1000 nM
CN(C[C@H]1CC[C@H](n2cc(NC(=O)c3cnn4ccc(NCC5CC5)nc34)c(C(C)(C)O)n2)CC1)C1CCN(Cc2cccc3c2n(C)c(=O)n3C2CCC(=O)NC2=O)CC1 (stereo partly drawn) ... 100 to 1000 nM

Continue with the next compound.
Memo: CC(C)(O)c1nn([C@H]2CC[C@H](CN3CCC(OCCNc4cccc5c4C(=O)N(C4CCC(=O)NC4=O)C5=O)CC3)CC2)cc1NC(=O)c1cnn2ccc(N3CCOCC3)nc12 (stereo partly drawn) , reported DC50: 100 to 1000 nM

* * *

Below: a set of entries, each annotated with reported pIC50.
- System: OCI-LY10
- procedure.text: CTG Cell Viability Assay - OCI-LY10
- Type: cell-based, human
- cond: Homo sapiens, OCI-Ly10, 96 h, OCI-LY10, 4 days; read-out: CTG Cell Viability Assay - OCI-LY10: Average external-IC50
pIC50: −log10 of the molar value.

Solved entries:
Cc1ccc(-c2nn([C@H]3CC[C@H](CN4CCC(OCCCc5cccc6c5n(C)c(=O)n6C5CCC(=O)NC5=O)CC4)CC3)cc2NC(=O)c2cnn3ccc(N4C[C@H]5C[C@@H]4CO5)nc23)nc1 (stereo partly drawn) ... < 6.00
CN(CCN1CCO[C@H](CCNc2cccc3c2C(=O)N(C2CCC(=O)NC2=O)C3=O)C1)C[C@H]1CC[C@H](n2cc(NC(=O)c3cnn4ccc(N5C[C@H]6C[C@@H]5CO6)nc34)c(C(F)F)n2)CC1 (stereo partly drawn) ... 6.30 to 7.00

Now for the molecule whose pIC50 we want.
molecule Cc1ccc(-n2nc(C3CCN(CCCCCOCCCc4ccc5c(c4)n(C)c(=O)n5C4CCC(=O)NC4=O)CC3)cc2NC(=O)c2cnn3cccnc23)nc1 (stereo not drawn) , pIC50 observed: < 6.00
